target or system: T1, ZFP SBS#668 (synthetic)
T1 chain: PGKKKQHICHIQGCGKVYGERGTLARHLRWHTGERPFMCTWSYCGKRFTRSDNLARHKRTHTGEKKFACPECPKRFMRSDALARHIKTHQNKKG
method summary: EMSA
measurement context: tags: MBP fusion
pKd: −log10 of the molar value.

# binder, pKd
measured = [
    ("GTGGAGGCCA (dsDNA) DNA 1: GTGGAGGCCA DNA 2: TGGCCTCCAC", 8.95),
]
